- System: MDA-MB-435
- test.name: NCI tumour cell line growth inhibition, 48 h
Activity calls are given as the source filed them. Cut-off read from the data, not from the text of the source: active = GI50 up to about 1.1 µM and inactive = higher.
Please answer using one outcome listed in 1 (yes) = active, 0 (no) = inactive

A selection of reference data follows.
[
  {
    "compound": "COC1CC(N)C(O)C(C)O1 (stereo not given)",
    "label": "0 (no)"
  },
  {
    "compound": "Cc1ccc(Nc2c3c(c(C#N)c4nc5ccccc5n24)CCCC3)cc1",
    "label": "0 (no)"
  },
  {
    "compound": "COc1ccccc1/C=C1\\CCC(Cc2ccccc2)(CN(C)C)C1=O (stereo not given)",
    "label": "1 (yes)"
  },
  {
    "compound": "COC1CC(C)C(OC)C2=CC(=O)C=C(NC(=O)/C(C)=C/C=C\\C(C)C(OC(N)=O)/C(C)=C\\C(C)C1OC)C2=O (stereo not given)",
    "label": "1 (yes)"
  }
]

Then this compound:
Called result for COc1ccc2c3c1O[C@H]1C(OC)C=CC4C(C2)N(Cc2cccs2)CCC341 (stereo not given in full)
0 (no)

* * *

// reported GI50 for each item listed
- Tested on: HOP-92
- test.name: NCI tumour cell line growth inhibition, 48 h
The source made the active and inactive calls. Rule as the data show it: active = GI50 up to about 1.1 µM and inactive = higher.

Guide cases for GI50, answers given:
[
  {
    "chemical.string": "O=C1CN(/N=C/c2ccc(-c3ccc(F)cc3)o2)C(=O)N1",
    "GI50": "0.394 µM (active)"
  },
  {
    "chemical.string": "O=C1c2cccc3c(Cl)ccc(c23)C(=O)N1CCCN1CCN(CCCN2C(=O)c3cccc4c(Cl)ccc(c34)C2=O)CC1",
    "GI50": "> 100 µM (inactive)"
  },
  {
    "chemical.string": "CC(=O)CC(=O)CCCC(=O)Nc1ccc(Cl)cc1Cl",
    "GI50": "> 100 µM (inactive)"
  },
  {
    "chemical.string": "O=[N+]([O-])/C(C(Cl)=C(Cl)Cl)=C(/Br)SCc1ccccc1",
    "GI50": "1.77 µM (inactive)"
  }
]

Alright, here's another compound for you.
Fill in: GI50 of `CCCCSC1=N/C(=C\c2ccc(N(C)C)cc2)C(Cl)=N1` is ___
> 100 µM (inactive)

* * *

- System: OVCAR-5
- test.name: NCI tumour cell line growth inhibition, 48 h
Active and inactive are the calls of the source. No stated cut-off is given here; in the data, active = GI50 up to about 1.1 µM and inactive = higher.
Please answer using one outcome listed in t for active, f for inactive

A selection of reference data follows.
[
  {
    "molecule": "CCOC(=O)C1=C(C)N(c2ccccc2)C2=C(C(=O)N(c3ccccc3)C2c2ccccc2)C1c1ccccc1 (stereo not given)",
    "label": "f"
  },
  {
    "molecule": "Nc1nc(Cl)c(N)c(NCC2(CO)CC2)n1",
    "label": "f"
  }
]

Called result for `Clc1ccccc1CN1COc2c(ccc3cccnc23)C1`
f

Called result for `COC(=O)c1ccc(CCC2=CC(=O)C=CC2=O)cc1`
f

Called result for CCCCNCCCNCCCNC(=O)c1csc(-c2csc(CCNC(=O)C(NC(=O)C(C)C(O)C(C)NC(=O)C(NC(=O)c3nc(C(CC(N)=O)NCC(N)C(N)=O)nc(N)c3C)C(OC3OC(CO)C(O)C(O)C3OC3OC(CO)C(O)C(OC(N)=O)C3O)c3c[nH]cn3)C(C)O)n2)n1 (stereo not given)
f
